// data source = paper PMC12529666

- tested_target: AGO2 L192P (Homo sapiens, UniProt Q9UKV8 1-859, L192P;S387D;S824A;S828D;S831D;S834A)
- Sequence (Q9UKV8 whole entry L192P/S387D/S824A/S828D/S831D/S834A): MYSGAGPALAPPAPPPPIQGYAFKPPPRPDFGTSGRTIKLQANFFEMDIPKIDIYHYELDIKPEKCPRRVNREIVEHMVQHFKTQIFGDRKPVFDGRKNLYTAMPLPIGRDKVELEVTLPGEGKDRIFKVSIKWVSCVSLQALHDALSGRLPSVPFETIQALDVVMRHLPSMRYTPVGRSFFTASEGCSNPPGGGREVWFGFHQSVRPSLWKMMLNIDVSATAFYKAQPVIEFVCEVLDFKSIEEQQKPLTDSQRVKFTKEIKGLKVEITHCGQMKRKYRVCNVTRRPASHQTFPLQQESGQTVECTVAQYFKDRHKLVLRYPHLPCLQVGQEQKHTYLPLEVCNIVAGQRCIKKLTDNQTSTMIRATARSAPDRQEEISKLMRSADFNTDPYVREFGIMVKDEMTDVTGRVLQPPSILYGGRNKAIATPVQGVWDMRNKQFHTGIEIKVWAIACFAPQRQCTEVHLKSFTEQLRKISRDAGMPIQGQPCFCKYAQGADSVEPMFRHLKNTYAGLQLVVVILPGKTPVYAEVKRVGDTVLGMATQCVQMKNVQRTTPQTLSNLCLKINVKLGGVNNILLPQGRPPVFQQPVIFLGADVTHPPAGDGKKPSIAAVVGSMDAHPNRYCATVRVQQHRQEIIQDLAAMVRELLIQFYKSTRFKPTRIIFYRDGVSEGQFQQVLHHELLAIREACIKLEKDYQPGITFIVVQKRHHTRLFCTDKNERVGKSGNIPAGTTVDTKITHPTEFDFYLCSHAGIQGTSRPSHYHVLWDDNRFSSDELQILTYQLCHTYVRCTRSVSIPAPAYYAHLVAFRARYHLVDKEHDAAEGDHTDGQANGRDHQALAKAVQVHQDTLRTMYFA
- protocol_summary: RNA Bind-n-Seq (nitrocellulose filter binding and sequencing); miR-122 guide loaded in AGO2; 60 min incubation; 30 mM Tris pH 8.0, 100 mM potassium acetate, 2 mM magnesium acetate, 0.5 mM TCEP, 0.005% NP-40, 0.01 mg/ml yeast tRNA; 3 nM AGO2-miR-122, 100 nM RNA library; 60; high values mean tight binding
- test_settings: protein: recombinant; tags: His6 (N-terminal, pFastBac HTA)
metric: binding signal

binder="ACGTCCCA (ssRNA, constant regions annealed to DNA blockers; guide miR-122 5' phosphate) RNA 1: GAGUUCUACAGUCCGACGAUCCCAACACGUCCCACACCUGGAAUUCUCGGGUGCCAA RNA 2: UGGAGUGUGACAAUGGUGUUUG DNA 1: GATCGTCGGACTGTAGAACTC DNA 2: TTGGCACCCGAGAATTCCA" data_value="0.569 fold enrichment over input"
binder="GCGCCCCA (ssRNA, constant regions annealed to DNA blockers; guide miR-122 5' phosphate) RNA 1: GAGUUCUACAGUCCGACGAUCCCAACGCGCCCCACACCUGGAAUUCUCGGGUGCCAA RNA 2: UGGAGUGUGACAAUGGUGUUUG DNA 1: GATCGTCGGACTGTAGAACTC DNA 2: TTGGCACCCGAGAATTCCA" data_value="0.498 fold enrichment over input"
binder="ATGCTCTG (ssRNA, constant regions annealed to DNA blockers; guide miR-122 5' phosphate) RNA 1: GAGUUCUACAGUCCGACGAUCCCAACAUGCUCUGCACCUGGAAUUCUCGGGUGCCAA RNA 2: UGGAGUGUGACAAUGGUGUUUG DNA 1: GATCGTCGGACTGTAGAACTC DNA 2: TTGGCACCCGAGAATTCCA" data_value="0.376 fold enrichment over input"

Let's switch to this binder now.
(Q) Item under review: ATGCTCCA (ssRNA, constant regions annealed to DNA blockers; guide miR-122 5' phosphate) RNA 1: GAGUUCUACAGUCCGACGAUCCCAACAUGCUCCACACCUGGAAUUCUCGGGUGCCAA RNA 2: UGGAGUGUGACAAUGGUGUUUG DNA 1: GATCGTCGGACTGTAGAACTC DNA 2: TTGGCACCCGAGAATTCCA . Reported binding signal?
(A) 3.01 fold enrichment over input
